Test system: ACHN renal
Experiment: NCI tumour cell line growth inhibition, 48 h
TGI overview

{"columns": ["chem smiles", "TGI"],
 "data": [
  ["O=C(CCc1ccc(O)c(O)c1)NCCc1cc(O)cc(OCc2ccccc2)c1", "46.9 µM"],
  ["NCCCN1CCN(c2ccccc2)CC1", "> 100 µM"],
  ["O=Cc1cn(Cc2ccc(Cl)cc2)c2ccccc12", "> 100 µM"],
  ["[N-]=[N+]=Nc1c(N2CCOCC2)c(Cl)nc2ccccc12", "> 100 µM"]
]}

###

Readings of TGI for the listed molecules
System: BT-549 breast
Assay: NCI tumour cell line growth inhibition, 48 h

{"columns": ["chem smiles", "TGI"],
 "data": [
  ["O=C(Nc1cccc(Cl)c1)Nc1nccs1", "> 100 µM"],
  ["CC(=O)N(O)CCCCCNC(=O)CCC(=O)N(O)CCCCCNC(=O)CCC(=O)N(O)CCCCCN", "> 100 µM"],
  ["COC1(OC)CC(CO)(CNc2nc(N)nc(Cl)c2C=O)C1", "> 100 µM"]
]}

These data points were gathered from PubChem BioAssay (NCI).
